Data origin: paper PMC6759796

# Assay Procedure: in vivo
# Measurement Context: Sprague-Dawley, rat, po
Reported Endpoint: Tmax (min)
# number only, unit min dropped from output

Example compounds with recorded Tmax:
CC(C)=CCC[C@](C)(O)[C@H]1CC[C@]2(C)[C@@H]1[C@H](O)C[C@@H]1[C@@]3(C)CC[C@H](O)C(C)(C)[C@@H]3[C@@H](O[C@@H]3O[C@H](CO)[C@@H](O)[C@H](O)[C@H]3O[C@@H]3O[C@H](CO)[C@@H](O)[C@H](O)[C@H]3O)C[C@]12C [Ginsenoside Rf] :: 40.2
COC[C@@]12CC[C@H](OC)[C@]34C(C([C@H](OC)[C@H]13)[C@]1(OC(C)=O)[C@H]3[C@@H](OC(=O)c5ccccc5)[C@](O)(C[C@H]34)[C@@H](OC)[C@@H]1O)N(C)C2 [Hypaconitine] :: 19.8

Given item O=C(/C=C/c1ccc(O)c(O)c1)O[C@H](Cc1ccc(O)c(O)c1)C(=O)O [Rosmarinic acid] , the value recorded as its Tmax is 40.2
